- SUBJECT_OF_TEST: human Lck enzyme (Homo sapiens, UniProt P06239)
- Construct: purchased Carna Biosciences, Inc. 08-170
- Sequence (P06239 whole entry): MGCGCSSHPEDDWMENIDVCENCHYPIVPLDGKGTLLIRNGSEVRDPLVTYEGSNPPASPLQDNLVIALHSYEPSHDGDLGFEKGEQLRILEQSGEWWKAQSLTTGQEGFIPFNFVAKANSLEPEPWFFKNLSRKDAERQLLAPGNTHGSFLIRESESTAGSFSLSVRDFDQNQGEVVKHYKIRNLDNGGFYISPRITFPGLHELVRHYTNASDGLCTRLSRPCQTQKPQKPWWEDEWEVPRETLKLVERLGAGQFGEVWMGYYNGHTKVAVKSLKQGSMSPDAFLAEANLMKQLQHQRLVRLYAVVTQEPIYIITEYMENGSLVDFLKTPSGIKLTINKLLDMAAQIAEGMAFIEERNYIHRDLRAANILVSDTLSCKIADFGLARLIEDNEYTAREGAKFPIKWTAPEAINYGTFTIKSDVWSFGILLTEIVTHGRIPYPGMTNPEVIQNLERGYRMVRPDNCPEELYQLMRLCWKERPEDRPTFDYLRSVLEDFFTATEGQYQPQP
- ASSAY_NAME: Lck enzyme inhibitory activity (time-resolved fluorometry, biotinylated peptide phosphorylation)
- Type: biochemical
- ASSAY_CONTEXT: biotinylated peptide phosphorylation, read-out: LCK_IC50
MEASUREMENT_LABEL: IC50 (nM)

Fill in: IC50 of Cc1cccc(S(=O)(=O)Nc2cc3[nH]c(C(=O)c4cnn(-c5cnc(Oc6c(F)cccc6F)cc5C)c4N)cc3cc2OCC(F)F)n1 is ___
14

I: Cc1cc(Oc2ccccc2F)ccc1-n1ncc(C(=O)c2cc3cc(OCC(F)F)c(NS(=O)(=O)CCC(F)F)cc3[nH]2)c1N
II: Cc1cc(Oc2ccccc2F)ccc1-n1ncc(C(=O)c2cc3cc(NS(C)(=O)=O)c(F)cc3[nH]2)c1N
III: Cc1cccc(S(=O)(=O)Nc2cc3[nH]c(C(=O)c4cnn(-c5cnc(Oc6ccccc6F)cc5C)c4N)cc3cc2F)n1
IV: Cc1cc(Oc2c(F)cccc2F)ncc1-n1ncc(C(=O)c2cc3cc(F)c(NS(=O)(=O)c4cccc(Cl)c4)cc3[nH]2)c1N
V: Cc1cc(Oc2ccccc2)cc(F)c1-n1ncc(C(=O)c2cc3cc(Cl)c(NS(C)(=O)=O)cc3[nH]2)c1N
rank_up(items): orders items by reported IC50 in ascending numerical order. Note for the reader: the ranking is given by listing the labels in the order requested.
II, I, V, III, IV

---

- SUBJECT_OF_TEST: human Src enzyme (Homo sapiens, UniProt P12931)
- Construct: purchased Carna Biosciences, Inc. 08-173
- Sequence (P12931 whole entry): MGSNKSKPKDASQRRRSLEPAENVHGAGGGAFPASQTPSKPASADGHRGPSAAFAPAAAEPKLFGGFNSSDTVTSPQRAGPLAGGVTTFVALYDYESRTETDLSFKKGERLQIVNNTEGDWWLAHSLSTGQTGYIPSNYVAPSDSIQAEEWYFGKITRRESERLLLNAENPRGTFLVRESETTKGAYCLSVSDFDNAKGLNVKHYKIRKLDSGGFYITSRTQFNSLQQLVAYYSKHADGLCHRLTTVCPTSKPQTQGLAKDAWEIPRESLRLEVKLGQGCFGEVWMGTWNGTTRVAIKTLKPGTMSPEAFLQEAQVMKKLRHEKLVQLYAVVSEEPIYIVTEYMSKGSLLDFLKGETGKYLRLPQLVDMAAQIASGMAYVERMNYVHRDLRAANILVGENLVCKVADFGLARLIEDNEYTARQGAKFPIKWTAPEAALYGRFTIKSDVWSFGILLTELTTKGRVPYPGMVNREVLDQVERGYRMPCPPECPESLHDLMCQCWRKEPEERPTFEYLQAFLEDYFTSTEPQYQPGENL
- ASSAY_NAME: Src enzyme inhibitory activity (time-resolved fluorometry, biotinylated peptide phosphorylation)
- Assay type: biochemical
- ASSAY_CONTEXT: read-out: SRC_IC50
pIC50: −log10 of the molar value.
MEASUREMENT_LABEL: pIC50

Sample answers from the record:
Fill in: pIC50 of Cc1cc(Oc2c(F)cccc2F)ncc1-n1ncc(C(=O)c2cc3cc(F)c(N4C(=O)NC(C)(C(F)(F)F)C4=O)cc3[nH]2)c1N (stereo not drawn) [Example 5-1-370] is ___
6.82

Fill in: pIC50 of Cc1cc(Oc2ccccc2F)ncc1-n1ncc(C(=O)c2cc3cc(OCC(F)F)c(NS(=O)(=O)C4CCOCC4)cc3[nH]2)c1N [Example 5-1-326] is ___
7.27

Fill in: pIC50 of Cc1cc(Oc2cccc(F)c2F)nc(C)c1-n1ncc(C(=O)c2cc3cc(F)c(NS(C)(=O)=O)cc3[nH]2)c1N [Example 5-1-053] is ___
6.37

Fill in: pIC50 of Cc1cc(-n2ncc(C(=O)c3cc4cc(C)c(C5CCN(C(C)C)CC5)cc4[nH]3)c2N)ccc1Oc1ccccc1F [Example 5-1-012] is ___
6.51

Fill in: pIC50 of Cc1cc2cc(C(=O)c3cnn(-c4ccc(Oc5ccccc5F)c(F)c4)c3N)[nH]c2cc1NS(C)(=O)=O [Example 5-1-198] is ___
6.57

A: Cc1cc(Oc2ccccc2F)ncc1-n1ncc(C(=O)c2cc3cc(F)c(NS(=O)(=O)NC(C)C)cc3[nH]2)c1N [Example 5-1-021]
B: Cc1cc(Oc2ccccc2F)ccc1-n1ncc(C(=O)c2cc3cc(N4CCOCC4)c(N4C(=O)NC(C)(C)C4=O)cc3[nH]2)c1N [Example 5-1-117]
C: Nc1c(C(=O)c2cc3cc(F)c(NS(=O)(=O)CCCF)cc3[nH]2)cnn1-c1ccc(Oc2ncccc2F)cc1F [Example 5-1-035]
Please give the order of these molecules when sorted by pIC50, largest value leading. Note for the reader: the ranking is given by listing the labels in the order requested.
B, C, A

---

- SUBJECT_OF_TEST: human Src enzyme (Homo sapiens, UniProt P12931)
- Construct: purchased Carna Biosciences, Inc. 08-173
- ASSAY_NAME: Src enzyme inhibitory activity (time-resolved fluorometry, biotinylated peptide phosphorylation)
- Assay type: biochemical
- ASSAY_CONTEXT: read-out: SRC_IC50
pIC50: −log10 of the molar value.
MEASUREMENT_LABEL: pIC50

Sample answers from the record:
Fill in: pIC50 of Cc1cc(Oc2c(F)cccc2F)ncc1-n1ncc(C(=O)c2cc3cc(OC4CCN(C(C)C)CC4)c(N4CCC(O)CC4)cc3[nH]2)c1N [Example 5-1-202] is ___
8.51

Fill in: pIC50 of Cc1cc(Oc2ccccc2F)ccc1-n1ncc(C(=O)c2cc3cc(F)c(NC(=O)C(F)(F)F)cc3[nH]2)c1N [Example 5-1-029] is ___
7.77

Fill in: pIC50 of Cc1cc(-n2ncc(C(=O)c3cc4cc(OC5CCN(C(C)C)CC5)c(N)cc4[nH]3)c2N)ccc1Oc1ccccc1F [Example 5-1-163] is ___
7.23

Fill in: pIC50 of Cc1cc(Oc2ccccc2F)ccc1-n1ncc(C(=O)c2cc3cc(OC(F)F)c(N4CC(C)(C)NS4(=O)=O)cc3[nH]2)c1N [Example 5-1-340] is ___
6.89

Fill in: pIC50 of Cc1cc(Oc2c(F)cccc2F)ncc1-n1ncc(C(=O)c2cc3cc(N4CCOCC4)c(Br)cc3[nH]2)c1N [Example 5-1-155] is ___
7.66

Fill in: pIC50 of Cc1cc(Oc2c(F)cccc2F)ncc1-n1ncc(C(=O)c2cc3cc(OC4CCN(C5CCCC5)CC4)c(-c4ccccc4C(F)(F)F)cc3[nH]2)c1N [Example 5-1-387] is ___
6.72

Fill in: pIC50 of Cc1cc2cc(C(=O)c3cnn(-c4cnc(Oc5c(F)cccc5F)cc4C)c3N)[nH]c2cc1N1C(=O)NC2(CCOCC2)C1=O [Example 5-1-342] is ___
7.32

Fill in: pIC50 of Cc1cc(-n2ncc(C(=O)c3cc4cc(OC5CCN(C6CCCC6)CC5)c(-c5ccccc5C)cc4[nH]3)c2N)ccc1Oc1ccccc1F [Example 5-1-335] is ___
5.77

Fill in: pIC50 of Nc1c(C(=O)c2cc3cc(F)c(NS(=O)(=O)CCCF)cc3[nH]2)cnn1-c1c(Cl)cc(Oc2ccccc2F)cc1Cl [Example 5-1-033] is ___
6.40

Fill in: pIC50 of Cc1cc(Oc2cc(F)cc(F)c2)nc(C)c1-n1ncc(C(=O)c2cc3cc(F)c(NS(C)(=O)=O)cc3[nH]2)c1N [Example 5-1-054] is ___
6.00

P: Cc1cc(Oc2c(F)cccc2F)ncc1-n1ncc(C(=O)c2cc3cc(OCC(F)F)c(C4CCOCC4)cc3[nH]2)c1N [Example 5-1-259]
Q: Cc1cc2cc(C(=O)c3cnn(-c4cnc(Oc5ccccc5F)cc4C)c3N)[nH]c2cc1NS(=O)(=O)C1CCOCC1 [Example 5-1-333]
# return whichever of P and Q has the smaller pIC50 Lab log: write the label of the selected item as the result.
Q
(Q: 6.85, P: 7.30)

1: Cc1cc(Oc2c(F)cccc2F)ncc1-n1ncc(C(=O)c2cc3cc(OC4CCN(C5CCCC5)CC4)c(-c4ccccc4Cl)cc3[nH]2)c1N [Example 5-1-288]
2: Cc1cc2cc(C(=O)c3cnn(-c4ccc(Oc5c(F)cccc5Cl)cc4C)c3N)[nH]c2cc1NS(C)(=O)=O [Example 5-1-096]
Rank 1 against 2 by their pIC50 values and give the higher one. Lab log: write the label of the selected item as the result.
2

---

- SUBJECT_OF_TEST: human Lck enzyme (Homo sapiens)
- Construct: purchased Carna Biosciences, Inc. 08-170
- ASSAY_NAME: Lck enzyme inhibitory activity (time-resolved fluorometry, biotinylated peptide phosphorylation)
- Format: biochemical
- ASSAY_CONTEXT: read-out: LCK_IC50
MEASUREMENT_LABEL: IC50 (nM)

Find the measured IC50: item Cc1cc(Oc2cccc(F)c2)ccc1-n1ncc(C(=O)c2cc3cc(C4CCN(C(C)C)CC4)c(F)cc3[nH]2)c1N , target or system human Lck enzyme (Homo sapiens).
4.2

1: Cc1cc(Oc2ccccc2F)ccc1-n1ncc(C(=O)c2cc3cc(OC(F)F)c(N)cc3[nH]2)c1N
2: Cc1cc(Oc2c(F)cccc2F)ncc1-n1ncc(C(=O)c2cc3cc(OCC(F)F)c(NS(=O)(=O)c4ccc(F)cc4)cc3[nH]2)c1N
Rank 1 against 2 by their IC50 values and give the higher one. Lab log: write the label of the selected item as the result.
2

a: Cc1cc2cc(C(=O)c3cnn(-c4ccc(Oc5ncccc5Cl)cc4Cl)c3N)[nH]c2cc1NS(=O)(=O)CCCF
b: Cc1cc(-n2ncc(C(=O)c3cc4cc(OC5CCN(CCO)CC5)c(Br)cc4[nH]3)c2N)ccc1Oc1ccccc1F
# return whichever of a and b has the smaller IC50 Lab log: write the label of the selected item as the result.
b
